- Method Description: Acute toxicity in ICR mouse assessed as survival rate at 100 mg/kg, iv monitered twice daily
- Type: organism-based
- Assay Context: in vivo, read-out: Activity
Quantity Measured: survival (%)

>>> numeric_readout("O=P(O)(O)CCN1CCC(Nc2cc(N3CCOCC3)nc(NCc3cn(CCCO)nn3)n2)CC1")
100

---

- Method Description: Acute toxicity in ICR mouse assessed as survival rate at 50 mg/kg, iv monitered twice daily
- Format: organism-based
- Assay Context: in vivo, read-out: Activity
Quantity Measured: survival

>>> result("O=P(O)(O)CCN1CCC(Nc2cc(N3CCOCC3)nc(NCc3cn(CCCO)nn3)n2)CC1")
"100%"
